# Tested on: Sweetpotato Whitefly-Crawler (Bemisia Tabaci)
# Test method notes: Insecticidal test for sweetpotato whitefly-crawler in foliar spray assay (col. BEMITA)
# Type: in vivo
# Assay setup: Bemisia tabaci, sweetpotato whitefly-crawler, read-out: BEMITA 200 ppm (Corrected % Control, rating)
# Method: The compounds were tested against cotton aphid, green peach aphid, and sweet potato whitefly using procedures described in the following examples and reported in Table 2. In each case of Table 2, the rating scale is as follows at 200 ppm. Insecticidal Test for Sweetpotato Whitefly-Crawler (Bemisia Tabaci) in Foliar Spray Assay Cotton plants grown in 3-inch pots, with 1 small (3-5 cm) true leaf, were used as test substrate. The plants were placed in a room with whitefly adults. […]
pest or weed control at 200 ppm: recorded values

Here is how some compounds turned out for pest or weed control at 200 ppm.
{"Compound": "CCCN(C(=O)C(C)CSC)c1sc(-c2cccnc2)nc1C (centres unmarked)", "Tested system": "Sweetpotato Whitefly-Crawler (Bemisia Tabaci)", "pest or weed control at 200 ppm": "80 to 100%"}
{"Compound": "CSCC(Cc1ccccc1)C(=O)Nc1sc(-c2cccnc2)nc1C (centres unmarked)", "Tested system": "Sweetpotato Whitefly-Crawler (Bemisia Tabaci)", "pest or weed control at 200 ppm": "< 80%"}
{"Compound": "COCCOC(=O)Nc1sc(-c2cccnc2)nc1C", "Tested system": "Sweetpotato Whitefly-Crawler (Bemisia Tabaci)", "pest or weed control at 200 ppm": "< 80%"}
{"Compound": "C/C=C/CCC(=O)Nc1sc(-c2cccnc2)nc1C", "Tested system": "Sweetpotato Whitefly-Crawler (Bemisia Tabaci)", "pest or weed control at 200 ppm": "80 to 100%"}

## Input Any idea what pest or weed control at 200 ppm was measured for `CCN(C(=O)C(C)(C)CSC)c1sc(-c2cccnc2)nc1C` ?
## Output 80 to 100%

* * *

pest or weed control at 200 ppm: recorded values
# System: Sweetpotato Whitefly-Crawler (Bemisia Tabaci)
# Test method notes: Insecticidal test for sweetpotato whitefly-crawler in foliar spray assay (col. BEMITA)
# Assay type: in vivo
# Assay setup: Bemisia tabaci, sweetpotato whitefly-crawler, read-out: BEMITA 200 ppm (Corrected % Control, rating)

Here is how some compounds turned out for pest or weed control at 200 ppm.
{"Compound": "Cc1nc(-c2cccnc2)sc1NC(=O)c1cnco1", "Value observed": "< 80%"}
{"Compound": "CCc1nc(-c2cccnc2)sc1N(C)C(=O)C(F)(F)F", "Value observed": "< 80%"}
{"Compound": "CSCC(C)C(=O)N(C)c1sc(-c2cncc(Br)c2)nc1C (stereo not shown)", "Value observed": "80 to 100%"}
{"Compound": "Cc1nc(-c2ccc(Cl)nc2)sc1NC(=O)OC(C)(C)C", "Value observed": "< 80%"}
{"Compound": "COc1cncc(-c2nc(C)c(NC(=O)C(C)CSC)s2)c1 (stereo not shown)", "Value observed": "< 80%"}

# context switch: different compound, same pest or weed control at 200 ppm
## Input Any idea what pest or weed control at 200 ppm was measured for `Cc1nc(-c2cccnc2)sc1N(Cc1ccccc1)C(=O)OC(C)(C)C` ?
## Output 80 to 100%

* * *

pest or weed control at 200 ppm: recorded values
# Tested on: Sweetpotato Whitefly-Crawler (Bemisia Tabaci)
# Test method notes: Insecticidal test for sweetpotato whitefly-crawler in foliar spray assay (col. BEMITA)
# Assay type: in vivo
# Assay setup: Bemisia tabaci, sweetpotato whitefly-crawler, read-out: BEMITA 200 ppm (Corrected % Control, rating)

{"Compound": "Cc1nc(-c2cccnc2)sc1N(C)C(=O)C(CC(C)C)NC(=O)OC(C)(C)C (centres unmarked)", "Property": "pest or weed control at 200 ppm", "Value observed": "< 80%"}
{"Compound": "Cc1nc(-c2cncc(F)c2)sc1NC(=O)C(C)CS(C)(=O)=NC#N (centres unmarked)", "Property": "pest or weed control at 200 ppm", "Value observed": "< 80%"}
{"Compound": "Cc1nc(-c2cccnc2)sc1N(C)C(=O)C(C)C", "Property": "pest or weed control at 200 ppm", "Value observed": "80 to 100%"}
{"Compound": "Cc1nc(-c2cccnc2)sc1NC(=O)OC1(C)CCCCC1", "Property": "pest or weed control at 200 ppm", "Value observed": "80 to 100%"}
{"Compound": "CCN(C(=O)C(C)CSC)c1sc(-c2cncc(F)c2)nc1Cl (centres unmarked)", "Property": "pest or weed control at 200 ppm", "Value observed": "80 to 100%"}
{"Compound": "Cc1nc(-c2cncc(F)c2)sc1NC(=O)C(C)(C)C[S+](C)[O-] (centres unmarked)", "Property": "pest or weed control at 200 ppm", "Value observed": "< 80%"}

## Input Any idea what pest or weed control at 200 ppm was measured for CCCC(C)OC(=O)Nc1sc(-c2cccnc2)nc1C (centres unmarked) ?
## Output 80 to 100%

## Input Another compound to check: `Cc1nc(-c2cncc(F)c2)sc1N(C)C(=O)C(C)C`
## Output 80 to 100%

* * *

Property: melting point

Here is how some molecules turned out for melting point.
{"Molecule": "CC(C)C(=O)N(C)c1cnc(-c2ccc(Cl)nc2)s1", "melting point": "155 to 159 °C"}
{"Molecule": "COCCOC(=O)Nc1sc(-c2cccnc2)nc1C", "melting point": "131 to 134 °C"}
{"Molecule": "CSC(C)CC(=O)Nc1sc(-c2cccnc2)nc1Cl (centres unmarked)", "melting point": "120 to 125 °C"}
{"Molecule": "CCOC(=O)c1nc(-c2cccnc2)sc1NC(=O)C(C)CSC (centres unmarked)", "melting point": "93 to 101 °C"}
{"Molecule": "CSCCC(=O)Nc1sc(-c2cccnc2)nc1SC", "melting point": "72 to 74 °C"}
{"Molecule": "CN(C(=O)OC(C)(C)C)c1sc(-c2cncc(F)c2)nc1F", "melting point": "81 to 84 °C"}
{"Molecule": "CCN(C(=O)OC(C)(C)C)c1cnc(-c2cncc(F)c2)s1", "melting point": "89 to 92 °C"}
{"Molecule": "C=CC(=O)N(C(=O)OC(C)(C)C)c1sc(-c2cccnc2)nc1C", "melting point": "68 to 70 °C"}

## Input Any idea what melting point was measured for `CN(C(=O)OC(C)(C)C)c1sc(-c2cncc(F)c2)nc1Cl` ?
## Output 119 to 120 °C

## Input Another molecule to check: `CSCCNC(=O)N(C)c1sc(-c2cccnc2)nc1C`
## Output 115 to 119 °C

* * *

# Tested on: Sweetpotato Whitefly-Crawler (Bemisia Tabaci)
# Test method notes: Insecticidal test for sweetpotato whitefly-crawler in foliar spray assay (col. BEMITA)
# Format: in vivo
# Assay setup: Bemisia tabaci, sweetpotato whitefly-crawler, read-out: BEMITA 200 ppm (Corrected % Control, rating)
Property: pest or weed control at 200 ppm

{"Compound": "Cc1nc(-c2cccnc2)sc1N(C)C(=O)C1=CC(=O)CC(C)(C)O1", "pest or weed control at 200 ppm": "< 80%"}
{"Compound": "CN(C(=O)C(C)(C)C)c1cnc(-c2cccnc2)s1", "pest or weed control at 200 ppm": "< 80%"}
{"Compound": "Cc1nc(-c2cccnc2)sc1NC(=O)CCC1CC1", "pest or weed control at 200 ppm": "80 to 100%"}
{"Compound": "CCOC(=O)C(C)C(=O)N(C)c1sc(-c2cccnc2)nc1C (centres unmarked)", "pest or weed control at 200 ppm": "80 to 100%"}

# context switch: different compound, same pest or weed control at 200 ppm
## Input Any idea what pest or weed control at 200 ppm was measured for CSCC(C)C(=O)N(C)c1sc(-c2cccnc2)nc1C(C)C (centres unmarked) ?
## Output < 80%

* * *

pest or weed control at 200 ppm: recorded values
# Test system: Sweetpotato Whitefly-Crawler (Bemisia Tabaci)
# Test method notes: Insecticidal test for sweetpotato whitefly-crawler in foliar spray assay (col. BEMITA)
# Assay type: in vivo
# Assay setup: Bemisia tabaci, sweetpotato whitefly-crawler, read-out: BEMITA 200 ppm (Corrected % Control, rating)

Here is how some compounds turned out for pest or weed control at 200 ppm.
{"Compound": "CC(=O)c1ccc(C(=O)Nc2sc(-c3cccnc3)nc2C)s1", "pest or weed control at 200 ppm": "< 80%"}
{"Compound": "CN(C(=O)CCS(C)(=O)=O)c1sc(-c2cccnc2)nc1Cl", "pest or weed control at 200 ppm": "80 to 100%"}
{"Compound": "CN(C(=O)c1cnn(C)c1)c1sc(-c2cncc(F)c2)nc1Cl", "pest or weed control at 200 ppm": "80 to 100%"}

## Input Any idea what pest or weed control at 200 ppm was measured for `CN(C(=O)CCS(C)(=O)=O)c1sc(-c2cncc(F)c2)nc1Cl` ?
## Output 80 to 100%

## Input Another compound to check: `CCN(C(=O)C(C)C)c1sc(-c2cncc(F)c2)nc1F`
## Output 80 to 100%

Attribution: patent US8853246B2
